measured on: partially purified telomerase from a nuclear extract of HEK293 cells (Homo sapiens)
Construct: partially purified telomerase from a nuclear extract of HEK293 cells; endogenous in cells; host or cells: HEK293 cells, nuclear extract, partially purified
assay name: In vitro telomerase inhibition, membrane hybridization method (U.S. Pat. No. 5,760,062)
Type: biochemical
protocol conditions: in the presence of the compound at a concentration of 10 μm
attribute measured: residual activity of in vitro telomerase activity (in parenthesis)

Worked examples, 10 compounds total:
{"columns": ["compound", "measured on", "observed measurement"],
 "data": [
  ["COC(=O)c1cc(C=C2SC(=O)NC2=O)c(Sc2ccc(Cl)cc2)s1", "partially purified telomerase from a nuclear extract of HEK293 cells (Homo sapiens)", "(56%)"],
  ["O=C1NC(=O)C(=Cc2cc([N+](=O)[O-])ccc2N2CCCCC2)S1", "partially purified telomerase from a nuclear extract of HEK293 cells (Homo sapiens)", "(54%)"],
  ["Cc1ccc([S+]([O-])c2ccc(C=C3SC(=O)NC3=O)cc2Cl)cc1 (stereo not drawn)", "partially purified telomerase from a nuclear extract of HEK293 cells (Homo sapiens)", "(64%)"],
  ["Cc1ccc(Sc2ccc(-c3ccccn3)cc2C=C2SC(=O)NC2=O)cc1", "partially purified telomerase from a nuclear extract of HEK293 cells (Homo sapiens)", "(56%)"],
  ["Cc1ccc([S+]([O-])c2ccc(C(F)(F)F)cc2C=C2SC(=O)NC2=O)cc1 (stereo not drawn)", "partially purified telomerase from a nuclear extract of HEK293 cells (Homo sapiens)", "(68%)"],
  ["Cc1ccc(Sc2cc(C(F)(F)F)ccc2C=C2SC(=O)NC2=O)cc1", "partially purified telomerase from a nuclear extract of HEK293 cells (Homo sapiens)", "(62%)"],
  ["Cc1ccc(Sc2ccc(CO)cc2C=C2SC(=O)NC2=O)cc1", "partially purified telomerase from a nuclear extract of HEK293 cells (Homo sapiens)", "(62%)"],
  ["Cc1ccc([S+]([O-])c2ccc(C=C3SC(=O)NC3=O)cc2[N+](=O)[O-])cc1 (stereo not drawn)", "partially purified telomerase from a nuclear extract of HEK293 cells (Homo sapiens)", "(51%)"],
  ["COc1ccc(Sc2ccc(C)cc2)c(C=C2SC(=O)NC2=O)c1", "partially purified telomerase from a nuclear extract of HEK293 cells (Homo sapiens)", "(61%)"],
  ["Cc1ccc([S+]([O-])c2ccc(C=C3SC(=O)NC3=O)cc2Br)cc1 (stereo not drawn)", "partially purified telomerase from a nuclear extract of HEK293 cells (Homo sapiens)", "(62%)"]
]}

So for O=C1NC(=O)C(=Cc2cc([N+](=O)[O-])ccc2Oc2ccccc2)S1 , the logged residual activity of in vitro telomerase activity (in parenthesis) turned out to be (53%)

So for Cc1ccc(S(=O)(=O)c2ccc(C=C3SC(=O)NC3=O)cc2[N+](=O)[O-])cc1 , the logged residual activity of in vitro telomerase activity (in parenthesis) turned out to be (58%)

So for Cc1ccc([S+]([O-])c2ccc(-c3ccco3)cc2C=C2SC(=O)NC2=O)cc1 (stereo not drawn) , the logged residual activity of in vitro telomerase activity (in parenthesis) turned out to be (61%)

So for Cc1ccc([S+]([O-])c2ccc(-c3cccs3)cc2C=C2SC(=O)NC2=O)cc1 (stereo not drawn) , the logged residual activity of in vitro telomerase activity (in parenthesis) turned out to be (55%)

So for O=C1NC(=O)C(=Cc2cc([N+](=O)[O-])ccc2[S+]([O-])c2cccc(Cl)c2)S1 (stereo not drawn) , the logged residual activity of in vitro telomerase activity (in parenthesis) turned out to be (59%)

---

measured on: partially purified telomerase from a nuclear extract of HEK293 cells (Homo sapiens, UniProt O14746)
Construct: partially purified telomerase from a nuclear extract of HEK293 cells; endogenous in cells; host or cells: HEK293 cells, nuclear extract, partially purified
Sequence (O14746 whole entry): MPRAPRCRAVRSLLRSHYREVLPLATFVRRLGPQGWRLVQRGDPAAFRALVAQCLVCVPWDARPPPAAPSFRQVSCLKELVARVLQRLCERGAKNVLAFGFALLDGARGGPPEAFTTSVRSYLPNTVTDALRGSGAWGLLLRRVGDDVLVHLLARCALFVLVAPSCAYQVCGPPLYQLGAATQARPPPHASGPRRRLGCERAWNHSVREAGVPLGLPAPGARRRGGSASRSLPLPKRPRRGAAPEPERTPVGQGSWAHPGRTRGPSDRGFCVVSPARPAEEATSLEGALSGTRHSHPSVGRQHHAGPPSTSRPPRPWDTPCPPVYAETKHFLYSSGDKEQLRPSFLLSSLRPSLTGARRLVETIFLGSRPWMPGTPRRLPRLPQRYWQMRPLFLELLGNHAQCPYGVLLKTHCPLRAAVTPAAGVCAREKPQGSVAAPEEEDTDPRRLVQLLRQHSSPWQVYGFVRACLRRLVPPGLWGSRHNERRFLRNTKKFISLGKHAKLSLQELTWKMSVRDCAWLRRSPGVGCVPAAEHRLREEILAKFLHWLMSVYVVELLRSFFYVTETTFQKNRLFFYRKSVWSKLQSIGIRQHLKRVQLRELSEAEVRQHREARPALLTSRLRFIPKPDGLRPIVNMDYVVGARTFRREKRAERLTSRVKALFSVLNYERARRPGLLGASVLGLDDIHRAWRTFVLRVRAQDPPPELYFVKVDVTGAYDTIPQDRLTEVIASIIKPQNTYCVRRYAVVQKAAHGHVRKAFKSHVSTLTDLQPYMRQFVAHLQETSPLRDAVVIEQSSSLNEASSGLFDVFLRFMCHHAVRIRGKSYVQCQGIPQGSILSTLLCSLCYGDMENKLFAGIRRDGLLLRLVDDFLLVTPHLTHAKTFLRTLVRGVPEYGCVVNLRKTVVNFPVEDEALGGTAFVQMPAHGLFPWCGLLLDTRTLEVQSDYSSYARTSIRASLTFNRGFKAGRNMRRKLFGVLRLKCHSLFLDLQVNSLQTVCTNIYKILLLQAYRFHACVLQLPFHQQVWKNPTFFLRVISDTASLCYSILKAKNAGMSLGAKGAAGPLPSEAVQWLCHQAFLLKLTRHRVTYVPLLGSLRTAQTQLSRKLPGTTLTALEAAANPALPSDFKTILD
Sequence (O60832 whole entry partner): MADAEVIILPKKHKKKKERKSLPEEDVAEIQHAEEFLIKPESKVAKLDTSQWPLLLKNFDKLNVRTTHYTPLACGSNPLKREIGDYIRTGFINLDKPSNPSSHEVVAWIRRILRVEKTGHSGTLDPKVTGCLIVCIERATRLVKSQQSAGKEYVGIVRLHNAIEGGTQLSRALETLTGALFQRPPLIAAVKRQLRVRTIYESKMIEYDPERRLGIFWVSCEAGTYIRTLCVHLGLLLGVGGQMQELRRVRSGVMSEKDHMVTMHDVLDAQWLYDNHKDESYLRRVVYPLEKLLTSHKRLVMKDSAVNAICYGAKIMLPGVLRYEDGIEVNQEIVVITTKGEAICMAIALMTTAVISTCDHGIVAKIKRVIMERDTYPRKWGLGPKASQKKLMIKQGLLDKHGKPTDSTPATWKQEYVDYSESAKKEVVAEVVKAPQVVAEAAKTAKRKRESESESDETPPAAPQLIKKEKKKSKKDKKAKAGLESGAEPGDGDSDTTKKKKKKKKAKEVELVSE
Sequence (Q9NPE3 whole entry partner): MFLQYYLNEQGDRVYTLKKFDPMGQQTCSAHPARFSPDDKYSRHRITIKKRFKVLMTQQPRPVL
Sequence (Q9NX24 whole entry partner): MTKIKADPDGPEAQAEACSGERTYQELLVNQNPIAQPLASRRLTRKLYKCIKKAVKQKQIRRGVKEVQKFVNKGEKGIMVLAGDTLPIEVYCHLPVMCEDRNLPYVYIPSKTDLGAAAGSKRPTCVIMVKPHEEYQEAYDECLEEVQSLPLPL
Sequence (Q9NY12 whole entry partner): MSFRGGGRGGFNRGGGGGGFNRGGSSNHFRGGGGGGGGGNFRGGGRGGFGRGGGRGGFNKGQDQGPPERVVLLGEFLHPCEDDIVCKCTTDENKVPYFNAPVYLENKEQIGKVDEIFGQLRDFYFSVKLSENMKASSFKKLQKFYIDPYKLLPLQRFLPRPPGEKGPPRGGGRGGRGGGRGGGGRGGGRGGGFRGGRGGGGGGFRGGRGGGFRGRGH
assay name: In vitro telomerase inhibition, membrane hybridization method (U.S. Pat. No. 5,760,062)
Format: biochemical
protocol conditions: partially purified telomerase from nuclear extract of HEK293 cells
attribute measured: IC50 (µM)

Worked examples, 3 compounds total:
{"columns": ["compound", "observed measurement"],
 "data": [
  ["O=C1NC(=O)C(=Cc2ccc(Sc3ccc(Cl)cc3)s2)S1 [Compound 62]", 7.8],
  ["O=C1NC(=O)C(=Cc2ccc(CN(c3ccccc3)c3ccccc3)cc2)S1 [Compound 35]", 3.9],
  ["O=C1NC(=O)C(=Cc2sccc2Oc2ccccc2)S1 [Compound 59]", 2.1]
]}

A: O=C1NC(=O)C(=Cc2ccc(C(=O)c3ccccc3)cc2)S1 [Compound 31]
B: O=C1NC(=O)C(=Cc2cc([N+](=O)[O-])ccc2[S+]([O-])c2ccncc2)S1 (stereo not drawn) [Compound 120]
Q: Out of A and B , name the one with the higher IC50. Write down the label of the entry you select.
A: A
(A: 15 µM, B: 9.3 µM)

I: O=C1NC(=O)/C(=C/c2cc([N+](=O)[O-])ccc2[S+]([O-])c2ccc(Cl)c(Cl)c2)S1 (stereo not drawn) [Compound 135]
II: O=C1NC(=O)C(=Cc2cc(Sc3ccc(Cl)cc3)c(Sc3ccc(Cl)cc3)s2)S1 [Compound 61]
Q: For the pair I and II , which entry has the numerically smaller recorded IC50? Write down the label of the entry you select.
A: II
(II: 0.33 µM, I: 4.5 µM)

a: O=C1NC(=O)C(=Cc2ccc(N(Cc3ccccc3)c3ccccc3)cc2)S1 [Compound 121]
b: Cc1ccc(Sc2ccc(Br)cc2C=C2SC(=O)NC2=O)cc1 [Compound 87]
Q: Out of a and b , name the one with the higher IC50. Write down the label of the entry you select.
A: b

1: O=C1NC(=O)C(=Cc2cc([N+](=O)[O-])ccc2SCc2ccccc2)S1 [Compound 76]
2: O=C1NC(=O)C(=Cc2cc([N+](=O)[O-])ccc2OCc2ccccc2)S1 [Compound 16]
Q: Out of 1 and 2 , name the one with the higher IC50. Write down the label of the entry you select.
A: 2
(2: 26 µM, 1: 3.9 µM)

1: COc1cc(C=C2SC(=O)NC2=O)ccc1Sc1ccc(C)cc1 [Compound 138]
2: O=C1NC(=O)C(=Cc2cc([N+](=O)[O-])ccc2SCCO)S1 [Compound 122]
Q: Out of 1 and 2 , name the one with the higher IC50. Write down the label of the entry you select.
A: 2

A: O=C1NC(=O)C(=Cc2cc(C(=O)c3ccc(Cl)cc3)c(S(=O)(=O)c3ccc(Cl)cc3)s2)S1 [Compound 66]
B: O=C1NC(=O)C(=Cc2cc(C(=O)Nc3ccccc3)sc2Sc2ccc(Cl)cc2)S1 [Compound 55]
C: O=C1NC(=O)C(=Cc2cc([N+](=O)[O-])ccc2Sc2ccc(C(=O)O)cc2)S1 [Compound 129]
D: Cc1ccc(COc2cc(C=C3SC(=O)NC3=O)ccc2[N+](=O)[O-])cc1 [Compound 19]
Q: Rank by IC50 (largest to smallest). I would appreciate it if you listed the labels in the requested order.
A: D, C, B, A

P: Cc1ccc(Oc2cccc(C=C3SC(=O)NC3=O)c2)cc1 [Compound 12]
Q: O=C1NC(=O)C(=Cc2ccc(Oc3ccccc3)cc2)S1 [Compound 14]
R: O=C1NC(=O)C(=Cc2cc([N+](=O)[O-])ccc2Sc2ccccc2Cl)S1 [Compound 71]
Q: Ascending sort, IC50. I would appreciate it if you listed the labels in the requested order.
A: R, Q, P

P: Cc1ccc(COc2ccc([N+](=O)[O-])c(C=C3SC(=O)NC3=O)c2)cc1 [Compound 21]
Q: Cc1ccc(Sc2cccc(C(F)(F)F)c2C=C2SC(=O)NC2=O)cc1 [Compound 99]
Q: Out of P and Q , name the one with the higher IC50. Write down the label of the entry you select.
A: Q

---

measured on: telomerase in human renal carcinoma cell line ACHN (Homo sapiens, UniProt O14746)
Construct: human renal carcinoma cell line ACHN for 3 days, and then a cell extract was prepared; endogenous in cells; host or cells: ACHN human renal carcinoma cells; CHAPS extract after 3 days of treatment
assay name: Telomerase activity in extract of agent-treated ACHN cells (TRAP assay)
Format: cell-based
protocol conditions: contact 3 days, concentration 10 μM, read-out: Residual Enzyme Activity (%)
attribute measured: remaining activity at 10 µM (%)

{"columns": ["molecule", "measured on", "attribute measured", "observed measurement"],
 "data": [
  ["O=C1NC(=O)C(=Cc2cc([N+](=O)[O-])ccc2S(=O)(=O)Cc2ccccc2)S1 [Compound 78]", "telomerase in human renal carcinoma cell line ACHN (Homo sapiens, UniProt O14746)", "remaining activity at 10 µM", 25],
  ["CCc1ccc([S+]([O-])c2ccc([N+](=O)[O-])cc2/C=C2\\SC(=O)NC2=O)cc1 (centres unmarked) [Compound 133]", "telomerase in human renal carcinoma cell line ACHN (Homo sapiens, UniProt O14746)", "remaining activity at 10 µM", 11],
  ["O=C1NC(=O)C(=Cc2cc([N+](=O)[O-])ccc2S(=O)(=O)c2ccc(Cl)cc2)S1 [Compound 69]", "telomerase in human renal carcinoma cell line ACHN (Homo sapiens, UniProt O14746)", "remaining activity at 10 µM", 16]
]}

P: O=C1NC(=O)/C(=C/c2cc([N+](=O)[O-])ccc2[S+]([O-])c2ccc(Cl)cc2)S1 (centres unmarked) [Compound 68]
Q: O=C1NC(=O)C(=Cc2cc([N+](=O)[O-])ccc2S(=O)(=O)C2CCCCC2)S1 [Compound 86]
Q: Out of P and Q , name the one with the higher remaining activity at 10 µM. Write down the label of the entry you select.
A: Q
(Q: 44%, P: 18%)

FYI, the data here is from patent US6518268B1.
